Target or system NAD(+) hydrolase SARM1 [28-724] (UniProt Q6SZW1): recorded pIC50 listed per item.
Would you please state pIC50, meaning minus log10 of the concentration in mol/L, as a bare number?

// known answers, use as guide
Request - read-out pIC50 | tested on NAD(+) hydrolase SARM1 [28-724] (UniProt Q6SZW1) | compound Cc1c(-c2ccnnc2)n[nH]c1C(=O)N1CCC(c2ccc(Cl)cc2)C1 (stereo unspecified)
6.37

Request - read-out pIC50 | tested on NAD(+) hydrolase SARM1 [28-724] (UniProt Q6SZW1) | compound O=C(c1[nH]nc(-c2ccnnc2)c1Br)N1CC[C@@H](c2ccc(Cl)cc2)C1
5.75

Request - read-out pIC50 | tested on NAD(+) hydrolase SARM1 [28-724] (UniProt Q6SZW1) | compound O=C(c1cc(-c2ccnnc2)n[nH]1)N1C[C@H](O)[C@H](c2ccc(Cl)cc2)C1
5.23

Request - read-out pIC50 | tested on NAD(+) hydrolase SARM1 [28-724] (UniProt Q6SZW1) | compound C[C@@H](O)[C@@H]1CN(C(=O)c2cc(-c3ccnnc3)n[nH]2)C[C@H]1c1ccc(Cl)cc1
6.71

Request - read-out pIC50 | tested on NAD(+) hydrolase SARM1 [28-724] (UniProt Q6SZW1) | compound O=C(c1cc(-c2ccnnc2)n[nH]1)N1C[C@@H](CO)[C@H](c2ccc(Cl)cc2)C1
7.14

// next entry
Request - read-out pIC50 | tested on NAD(+) hydrolase SARM1 [28-724] (UniProt Q6SZW1) | compound N#C[C@@H]1CN(C(=O)c2cc(-c3ccnnc3)n[nH]2)C[C@H]1c1ccc(Cl)cc1
6.25
